- assay.context: 313.15 K; 101 kPa; Liquid
Each entry below lists one item and its recorded kinematic viscosity value.
Give the value in m2/s but do not write m2/s after it.

Please report the recorded kinematic viscosity for CCCCCCCO [heptan-1-ol] .
4.59e-06

Using the record for ClC(Cl)Cl [trichloromethane] , report its kinematic viscosity.
3.39e-07

Find the recorded kinematic viscosity belonging to CCCCCO [pentan-1-ol] and report it.
2.89e-06

***
kinematic viscosity lookup needed for CCCCCCO [hexan-1-ol] , thanks.
3.63e-06

====

- assay.context: 303.15 K; 101 kPa; Liquid
Listed compounds paired with reported mass density
Write the answer as a number in kg/m3, unit excluded.

Recorded mass density, per entry:
Request the reported mass density associated with "CCCCCCCO"
814.94

Suppose we examine the compound "CCCCCCO" ; what mass density value has been reported?
811.65

For "CCCCCO" , what is its reported mass density?
808.6

Moving on to another compound below.
Return reported mass density; argument: "ClC(Cl)Cl"
1469.21
